Origin of values: the NIST ThermoML archive (doi:10.1021/acs.jced.9b00377)

test: refractive index (Na D-line) (dimensionless); conditions: 293.15 K; 100 kPa; Liquid; Standard Abbe refractometry
reportedEndpoint: refractive index

> print(dat)
                                   compound  numericresult
1  CCCC(=O)[O-].CN(C)C(=[NH2+])N(C)C [1,1,3,3-tetramethylguanidinium butanoate]         1.4823
2  CCCCCCC(=O)[O-].CN(C)C(=[NH2+])N(C)C [1,1,3,3-tetramethylguanidinium heptanoate]         1.4792
3  CCCCCCCC(=O)[O-].CN(C)C(=[NH2+])N(C)C [1,1,3,3-tetramethylguanidinium octanoate]         1.4678
4  CCCCCC(=O)[O-].CN(C)C(=[NH2+])N(C)C [1,1,3,3-tetramethylguanidinium hexanoate]         1.4701
5  CCCCC(=O)[O-].CN(C)C(=[NH2+])N(C)C [1,1,3,3-tetramethylguanidinium pentanoate]         1.4776
